Entry source: patent US20240002497A1

Reported pEC50 values for the following binders.
target: T1, rhNav1.7α + β1-β2-β3 (rhesus Nav1.7α co-expressed with Navβ1, Navβ2 and Navβ3 on cells) (rhesus monkey (α subunit); β subunits …); experiment: binding FACS, CHO FlpIn cells
T1 construct: also called rhNav1.7-beta1-beta2-beta3; CHO FlpIn rhNav1.7α + β1-β2-β3
Interpret pEC50 as the negative base-10 log of the concentration measured in mol/L.

{"BINDER": "F010301654 (VHH, also called F0103275B05(L11V, S33R, R39Q, S50Y, S56D, T83R, V89L, N93R)) VHH: EVQLVESGGGVVQPGGSLRLSCAASGSIFNINRMAWYRQAPGKQRELVAYSTNGGDTNYADSVKGRFTISRDNAKRVYLQMNSLRPEDTALYYCRALLQPSIYDISRTYWGQGTLVTVSS", "pEC50": 7.74}

Specify measured pEC50 for F010301653 (VHH, also called F0103275B05(L11V, S33R, S50Y, S56D, T83R, V89L, N93R)) VHH: EVQLVESGGGVVQPGGSLRLSCAASGSIFNINRMAWYRRAPGKQRELVAYSTNGGDTNYADSVKGRFTISRDNAKRVYLQMNSLRPEDTALYYCRALLQPSIYDISRTYWGQGTLVTVSS .
7.80
